# System: Rattus norvegicus
# experimentNotes: Toxicity in Rattus norvegicus Wistar (rat) assessed as Rmax at 40 mg/kg, ip measured after 45 min by ECG analysis (reference value: 0.08 +/- 0.008 mv)
# Assay type: organism-based
# Parameters: dose 40 mg/kg, route intraperitoneal
# conditionNotes: in vivo, 0.75 h
Can you tell me Activity for the items I'm about to list?
Answers are plain numbers, in mV.

# count of solved cases: 3
// fetch Activity for CCOC(=O)C1=C(C)N(CC(O)COc2ccc(/C=N/C(=S)Nc3ccc(OC)cc3)cc2)C(=S)NC1c1cccc([N+](=O)[O-])c1 (stereo unspecified) ; system: Rattus norvegicus
0.07

For Rattus norvegicus, give Activity of the listed compound: CCOC(=O)C1=C(C)N(CC(O)COc2ccc(/C=N/C(=S)Nc3ccc(Cl)cc3)cc2)C(=S)NC1c1ccccc1[N+](=O)[O-] (stereo unspecified)
0.02

Provide the reported Activity (system: Rattus norvegicus) for CCOC(=O)C1=C(C)N(CC(O)COc2ccc(/C=N/C(=S)Nc3ccccc3OC)cc2)C(=S)NC1c1cccc([N+](=O)[O-])c1 (stereo unspecified)
0.03

Each compound below has a recorded value; state its Activity.
1. CCOC(=O)C1=C(C)N(CC(O)COc2ccc(/C=N/C(=S)Nc3ccc(OC)cc3)cc2)C(=S)NC1c1ccccc1[N+](=O)[O-] (stereo unspecified)
2. CCOC(=O)C1=C(C)N(CC(O)COc2ccc(/C=N/C(=S)Nc3ccccc3OC)cc2)C(=S)NC1c1ccccc1[N+](=O)[O-] (stereo unspecified)
3. CCOC(=O)C1=C(C)N(CC(O)COc2ccc(/C=N/C(=S)Nc3ccc(Cl)cc3)cc2)C(=S)NC1c1cccc([N+](=O)[O-])c1 (stereo unspecified)

1. 0.02
2. 0.05
3. 0.01
